Each recorded value in this set is attributed to PubChem BioAssay AID372.

molecular target: Gag-Pol polyprotein (Human immunodeficiency virus type 1 group M subtype B (isolate HXB2)) (UniProt P04585); experiment: RNase H inhibition, HIV 1 Gag Pol polyprotein, FRET biochemical assay, screening (AID 372); details: HIV-1 RT RNase H, FRET RNA/DNA substrate fluorescence; at 10 µM
The whole screen tested about 100,000 compounds, of which about 770 (0.77%) were called active. No stated cut-off is given here; in the data, active means inhibition above about 50%; inactive means the rest. This excerpt belongs to a sample that is enriched for actives.
Return exactly one item of YES for active, NO for inactive

Record excerpt, results attached:
smiles code: COc1cc(/C=C2\SC(=S)N(NC(=O)c3ccc(O)c(OC)c3)C2=O)ccc1O
cat: NO
//
smiles code: COc1cccc(OCCOc2ccccc2/C=C2/SC(=S)NC2=O)c1
cat: NO
//
smiles code: COc1ccc(OCCOc2ccc(Br)cc2/C=C2\SC(=S)NC2=O)cc1
cat: NO
//
smiles code: O=C(NN1C(=O)/C(=C/c2ccc(O)c(O)c2)SC1=S)c1ccccc1Br
cat: YES

stdin: What was the test verdict on `O=C(NN1C(=O)/C(=C/c2ccc(O)c(O)c2)SC1=S)c1ccc(Br)cc1` ?
stdout: YES

* * *

biological target: Gag-Pol polyprotein (Human immunodeficiency virus type 1 group M subtype B (isolate HXB2)); test: RNase H inhibition, HIV 1 Gag Pol polyprotein, FRET biochemical assay, screening (AID 372); conditions: HIV-1 RT RNase H, FRET RNA/DNA substrate fluorescence; at 10 µM; stronger effect = higher value
The campaign covered roughly 100,000 compounds. About 770 (0.77%) were called active. The full list was thinned out, with actives kept by preference.
Class assignment keyed on inhibition, ranges low range (below 8%), mid range (8% to below 20%), high range (20% or more)

compound: CCOCCOC(=O)C1=C(C)NC2=C(C(=O)CCC2)C1c1ccc(CC)cc1 (stereo unspecified)
cat: mid range

stdin: Exercise: read the entry `C=CCN1C(=O)/C(=C/c2ccc(N(C)C)cc2)SC1=S` and state which class it falls under.
stdout: mid range

stdin: Exercise: read the entry `CCOC(=O)N1CCN(C(=O)c2ccc(N(Cc3ccc(Cl)cc3)S(C)(=O)=O)cc2)CC1` and state which class it falls under.
stdout: low range

stdin: Exercise: read the entry `COc1ccc(Cl)cc1NC(=O)c1ccc(CN(c2ccccc2)S(C)(=O)=O)cc1` and state which class it falls under.
stdout: high range

stdin: Exercise: read the entry `Cc1cc(=O)oc2cc3occ(-c4ccccc4)c3cc12` and state which class it falls under.
stdout: high range

stdin: Exercise: read the entry `CCOc1ccc(C(=O)NC(=S)Nc2ccc(C)cc2)cc1Br` and state which class it falls under.
stdout: mid range

stdin: Exercise: read the entry `COC(=O)c1c(NC(=O)c2ccccc2Br)sc(C)c1C` and state which class it falls under.
stdout: high range

stdin: Exercise: read the entry `Cc1cc(=O)oc2c(C)c3occ(-c4ccccc4)c3cc12` and state which class it falls under.
stdout: high range

stdin: Exercise: read the entry `COc1cc(C=C2C(=O)c3ccccc3C2=O)ccc1OCc1ccc(F)cc1` and state which class it falls under.
stdout: low range

stdin: Exercise: read the entry `C=CCN1C(=O)/C(=C/c2cc(C)n(-c3ccc(C(=O)O)cc3C)c2C)C(=O)NC1=S` and state which class it falls under.
stdout: low range

* * *

biological target: Gag-Pol polyprotein (Human immunodeficiency virus type 1 group M subtype B (isolate HXB2)) (UniProt P04585); experiment: RNase H inhibition, HIV 1 Gag Pol polyprotein, FRET biochemical assay, screening (AID 372); conditions: HIV-1 RT RNase H, FRET RNA/DNA substrate fluorescence; at 10 µM; stronger effect = higher value
Hit rate of the full screen: of about 100,000 compounds, about 770 (0.77%) were called active. The list comes from a sample in which actives are over-represented; it also holds close analogues and randomly drawn compounds.
Hi, to clarify the labels: yes (1) covers inhibition from 40% upward, no (0) covers anything below 40%.

compound: O=C(Nc1ccc(Cl)c(Cl)c1)OCCOc1ccccc1Cl
cat: yes (1)
//
compound: CCOC(=O)c1ccc(N2C(=N)S/C(=C\c3ccc(N4CCOCC4)cc3)C2=O)cc1
cat: no (0)

stdin: For this compound, is measured inhibition 40% or higher? `O=C(Nc1cccc(Cl)c1)OCCOc1ccccc1`
stdout: yes (1)

stdin: For this compound, is measured inhibition 40% or higher? `Cc1cccc(OCCOC(=O)Nc2cccc(Cl)c2)c1`
stdout: yes (1)

stdin: For this compound, is measured inhibition 40% or higher? C=CCOC(=O)C1=C(C)N(CC)C(=O)NC1c1ccc(Br)cc1 (centres undefined)
stdout: no (0)

stdin: For this compound, is measured inhibition 40% or higher? `O=C1c2cccc3c([N+](=O)[O-])ccc(c23)C(=O)N1c1ccc(O)cc1`
stdout: no (0)

stdin: For this compound, is measured inhibition 40% or higher? `O=C(Nc1cccc(Cl)c1)OCCOc1cccc(F)c1`
stdout: yes (1)
